assay: chemical genetic growth profiling, strain panel (AID 1159580);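 note: tested at 20 µM; growth read once vehicle control cultures reached saturation at 30 °C; 1 = growth at the plate median or of vehicle wells; lower values mean less growth of the strain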; settings: S. cerevisiae deletion strains, growth OD, locus YDL134C, strain PPH21, active compounds read low
The campaign covered roughly 5,500 compounds. About 2,000 (36%) were called active. Not shown: some 18% with an inconclusive outcome. This is one part of the list.
QUANTITY_MEASURED: normalized growth

compound="CN1CCN2c3ccccc3Cc3ccccc3C2C1 (centres undefined)" quantity_measured="normalized growth" test_result=1.01
compound="CC(=O)OC1CC2C(C)(C)CCCC2(C)C2CCC3(C)C(c4ccoc4)OC(=O)C4OC43C12C (centres undefined)" quantity_measured="normalized growth" test_result=0.987
compound="CC(=O)O[C@H]1C[C@@]2(C)[C@H](c3ccoc3)OC(=O)[C@H]3O[C@]32[C@@]2(C)C1[C@]1(C)C(C[C@H]2OC(C)=O)C(C)(C)[C@H](OC(C)=O)C[C@@H]1OC(C)=O (some centres undefined)" quantity_measured="normalized growth" test_result=0.986
compound=COc1ccc(-c2coc3cc(OC)cc(O)c3c2=O)cc1 quantity_measured="normalized growth" test_result=0.982
compound="CC(=O)O[C@@H]1CC2C(C)(C)C(=O)CC[C@]2(C)C2CC[C@@]3(C)[C@H](c4ccoc4)OC(=O)C4OC43[C@@]21C (some centres undefined)" quantity_measured="normalized growth" test_result=0.992
compound=C[n+]1cc2c3c(ccc2c2ccc4cc5c(cc4c21)OCO5)OCO3 quantity_measured="normalized growth" test_result=0.0603
compound=CC(=O)Oc1cc(OC(C)=O)c2c(=O)c(-c3ccccc3)coc2c1 quantity_measured="normalized growth" test_result=1.01
compound=COc1cc2cc[n+]3cc4c(OC)c(OC)ccc4cc3c2cc1OC quantity_measured="normalized growth" test_result=0.985
compound=COc1cc(O)c2c(=O)c(-c3ccc(O)cc3)coc2c1 quantity_measured="normalized growth" test_result=0.859

---

experiment: chemical genetic growth profiling, strain panel (AID 1159580);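 note: tested at 20 µM; growth read once vehicle control cultures reached saturation at 30 °C; 1 = growth at the plate median or of vehicle wells; lower values mean less growth of the strain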; conditions: S. cerevisiae deletion strains, growth OD, locus YBR279W, strain paf1
Among all 5,500 compounds or so, about 2,000 (36%) were called active. About 18% were inconclusive and are not listed. Cut-off read from the data, not from the text of the source: active = normalized growth mostly below about 0.91 (no sharp cut-off); inconclusive = no clear call, values can overlap the other calls; inactive = mostly above about 0.92. The list shows a part of the results.
Outcome codes: True for active, False for inactive

molecule=CCn1cc(C(=O)O)c(=O)c2cc(F)c(N3CCNCC3)cc21 class=False
molecule="CC(C(=O)O)[C@H]1CCC2C3CC=C4C[C@@H](O)CC[C@]4(C)C3CC[C@@]21C (stereo partly specified)" class=False
molecule="CC1(C)O[C@@H]2CC3C4CCC5=CC(=O)C=C[C@]5(C)[C@@]4(F)[C@@H](O)C[C@]3(C)[C@]2(C(=O)CO)O1 (stereo partly specified)" class=False
molecule="CCC(CCC(C)[C@H]1CCC2C3CC=C4C[C@@H](O)CC[C@]4(C)C3CC[C@@]21C)C(C)C (stereo partly specified)" class=False
molecule=C/C(=C\C(=O)OCCCCCCCCC(=O)O)C[C@@H]1OC[C@H](C[C@@H]2O[C@H]2[C@@H](C)[C@H](C)O)[C@@H](O)[C@H]1O class=False
molecule=COc1ccc(-c2cc(=O)c3c(OC)c(OC)c(OC)c(OC)c3o2)cc1 class=False
molecule=N[C@H](CO)Cc1ccccc1 class=False
molecule=O=C1c2c(O)ccc(O)c2C(=O)c2c(NCCNCCO)ccc(NCCNCCO)c21 class=True
molecule=O=C1CN2Cc3c(ccc(Cl)c3Cl)N=C2N1 class=False
molecule=CC(=O)O.CC(=O)O.[Cd] class=True
molecule=CC(=O)Nc1cccc(O)c1 class=False
molecule=CC1=NCCc2c1[nH]c1cc(O)ccc21 class=False
molecule=CC1=C2C(=CO[C@H](C)[C@H]2C)C(=O)C(C(=O)O)=C1O class=False
molecule=O=C(O)c1nc2cc(Cl)c(Cl)cc2[nH]c1=O class=False
molecule="CC(=O)O[C@@H]1CC2C(C)(C)C(=O)CC[C@]2(C)C2CC[C@@]3(C)[C@H](c4ccoc4)OC(=O)C4OC43[C@@]21C (stereo partly specified)" class=False
molecule="COCCOC(=O)C1=C(C)NC(C)=C(C(=O)OC(C)C)C1c1cccc([N+](=O)[O-])c1 (stereo unspecified)" class=False
molecule=COc1c(O)cccc1O class=False
molecule="CC(=O)[C@H]1CCC2C3CC=C4C[C@@H](O)CC[C@]4(C)C3CC[C@@]21C (stereo partly specified)" class=False
molecule="CC(=O)O[C@@H]1CC2C(C)(C)CCC(=O)[C@]2(C)C2CC[C@@]3(C)[C@H](c4ccoc4)OC(=O)C4OC43[C@@]21C (stereo partly specified)" class=False
molecule="COC(=O)C1=C(C)NC(C)=C(C(=O)OCC(C)C)C1c1ccccc1[N+](=O)[O-] (stereo unspecified)" class=True
molecule="CC1(C)O[C@@H]2CC3C4C[C@H](F)C5=CC(=O)C=CC5(C)C4C(O)CC3(C)[C@]2(C(=O)CO)O1 (stereo partly specified)" class=False
molecule="CN1CCN2c3ccccc3Cc3ccccc3C2C1 (stereo unspecified)" class=False
molecule="FC(F)(F)C(Cl)Br (stereo unspecified)" class=False
molecule=ClC(Cl)=C(c1ccc(Cl)cc1)c1ccc(Cl)cc1 class=False
molecule="CC(=O)O[C@H]1C[C@@H](O)C(C)(C)C2C[C@@H](OC(C)=O)[C@]3(C)C(CC[C@@]4(C)[C@H](c5ccoc5)OC(=O)C5OC543)[C@]21C (stereo partly specified)" class=False
molecule=O=c1[nH]c2cc(Cl)c(Cl)cc2[nH]c1=O class=False
molecule="CC(=O)OCC(=O)[C@@]1(O)CCC2C3CC[C@@H]4C[C@H](O)CC[C@]4(C)C3C(=O)C[C@@]21C (stereo partly specified)" class=False
molecule=Nc1nnc(-c2cccc(Cl)c2Cl)c(N)n1 class=False
molecule="CC(=O)O[C@H]1C[C@@]2(C)[C@H](c3ccoc3)OC(=O)[C@H]3O[C@]32[C@@]2(C)C1[C@]1(C)C(C[C@H]2OC(C)=O)C(C)(C)[C@H](OC(C)=O)C[C@@H]1OC(C)=O (stereo partly specified)" class=False
molecule="CCOC(=O)C1C(C=C(C)C)C1(C)C (stereo unspecified)" class=False
molecule=O=C1CC[C@]23C=CC(=O)NCCCCNCCCNC(=O)/C=C/c4ccc(c2c4)O[C@@H]3C1 class=False
molecule=CC(=O)Nc1ccc(O)cc1 class=False
molecule=CC1=CCc2c(cc3oc(C)cc(=O)c3c2O)OC1 class=False
molecule=COc1cc2c3cc1Oc1cc(ccc1O)C[C@@H]1c4c(cc(OC)c(O)c4Oc4ccc(cc4)C[C@@H]3N(C)CC2)CC[N+]1(C)C class=False
molecule=S=c1ccss1 class=False
molecule=CCCN1C[C@H](CSC)C[C@@H]2c3cccc4[nH]cc(c34)C[C@H]21 class=False
molecule="CN1CCOC(c2ccccc2)c2ccccc2C1 (stereo unspecified)" class=False
molecule="CC(=O)OCC(=O)[C@H]1CCC2C3CC=C4C[C@@H](O)CC[C@]4(C)C3CC[C@@]21C (stereo partly specified)" class=False
molecule=CCCCCCCCCCCCCCCC[n+]1ccccc1 class=True
molecule=CCN1CCN(c2cc3c(cc2F)c(=O)c(C(=O)O)cn3C2CC2)CC1 class=False
molecule="CC(=O)[C@H]1CCC2C3CC=C4C[C@@H](OC(=O)CCC(=O)O)CC[C@]4(C)C3CC[C@@]21C (stereo partly specified)" class=False
